B1: POU domain, class 3, transcription factor 4, residues 280 to 335; numbered along this chain, P49335 (parent)
chain: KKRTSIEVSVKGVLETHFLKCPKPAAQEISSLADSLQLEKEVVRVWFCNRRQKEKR

variants of: B1; test: abundance fitness (aPCA) (normalised: wild type 0, dead -1); higher = more abundant; growth selection in yeast, the domain comes from the species named; conditions: Homo sapiens
Returns the class for an entry based on its abundance fitness. Class ranges: range A = under -0.6, range B = from -0.6 up to -0.2, range C = -0.2 and over

{"columns": ["mut", "group_label"],
 "data": [
  ["K23T", "range C"],
  ["Q52R", "range B"],
  ["K23Y", "range C"],
  ["L32M", "range B"],
  ["V43W", "range A"],
  ["K53R", "range C"],
  ["E15G", "range A"],
  ["R50C", "range A"],
  ["E54L", "range A"],
  ["L32C", "range A"],
  ["T16W", "range B"],
  ["P24Y", "range A"],
  ["S35H", "range C"],
  ["H17T", "range B"],
  ["E28D", "range B"],
  ["R56A", "range C"],
  ["R44Y", "range A"],
  ["R51C", "range B"],
  ["E54H", "range A"],
  ["F47W", "range A"],
  ["L19Q", "range C"],
  ["L38V", "range B"],
  ["K11Q", "range C"],
  ["K2L", "range C"],
  ["S35F", "range B"],
  ["S30V", "range C"],
  ["S30Q", "range C"],
  ["E28V", "range B"],
  ["I6V", "range B"],
  ["C48W", "range C"],
  ["A25K", "range C"],
  ["L19F", "range A"],
  ["E54S", "range A"],
  ["V10A", "range C"],
  ["A33F", "range A"],
  ["D34C", "range B"],
  ["R50W", "range A"],
  ["D34P", "range A"],
  ["V43G", "range A"],
  ["K55G", "range B"],
  ["K2A", "range B"],
  ["E7L", "range C"],
  ["S5A", "range C"],
  ["D34A", "range B"],
  ["A25I", "range B"]
]}
